# system tested: Hypoxia-inducible factor 1-alpha (Homo sapiens) (UniProt Q16665)
# Sequence (Q16665 whole entry, looked up): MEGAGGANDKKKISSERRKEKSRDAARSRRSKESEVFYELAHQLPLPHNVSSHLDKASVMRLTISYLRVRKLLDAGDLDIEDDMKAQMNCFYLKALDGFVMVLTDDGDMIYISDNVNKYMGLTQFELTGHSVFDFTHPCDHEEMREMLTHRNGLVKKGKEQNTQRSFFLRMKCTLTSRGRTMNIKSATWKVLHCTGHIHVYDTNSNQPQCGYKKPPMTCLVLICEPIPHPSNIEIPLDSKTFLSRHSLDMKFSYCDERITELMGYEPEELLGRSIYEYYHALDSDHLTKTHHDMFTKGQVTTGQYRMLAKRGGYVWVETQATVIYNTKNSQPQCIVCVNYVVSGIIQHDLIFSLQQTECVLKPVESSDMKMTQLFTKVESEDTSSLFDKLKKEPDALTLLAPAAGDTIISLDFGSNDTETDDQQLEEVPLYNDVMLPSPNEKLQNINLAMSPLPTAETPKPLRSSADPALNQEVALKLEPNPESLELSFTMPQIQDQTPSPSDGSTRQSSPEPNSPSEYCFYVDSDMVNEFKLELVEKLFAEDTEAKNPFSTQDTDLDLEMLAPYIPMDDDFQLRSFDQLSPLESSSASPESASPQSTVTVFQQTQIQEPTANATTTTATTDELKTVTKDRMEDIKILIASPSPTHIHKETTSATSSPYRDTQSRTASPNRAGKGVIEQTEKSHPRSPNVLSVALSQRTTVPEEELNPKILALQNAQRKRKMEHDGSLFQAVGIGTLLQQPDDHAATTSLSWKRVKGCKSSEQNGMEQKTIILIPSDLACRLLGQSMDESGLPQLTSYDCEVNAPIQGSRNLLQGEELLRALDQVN
# experiment summary: Inhibition of HIF1alpha transcriptional activity in hypoxia-induced human HCCLM3 cells co-transfected with luciferase reporter plasmid containing five copies of HREs and pRL-SV40 plasmid encoding Renilla luciferase at 10 uM incubated with compound under normoxia for 1 hr followed by hypoxia induction and measured after 24 hrs by HRE-dependent dual luciferase reporter gene assay relative to control
Respond with MET for inhibition values of 40% and above, NOT MET for values below.

>>> discrete_label("Cc1nc(C(=O)NCCc2ccccn2)cs1")
"NOT MET"
>>> discrete_label("O=C(NCCc1ccccc1Cl)c1cc(-c2ccccc2)ncn1")
"MET"
>>> discrete_label("Cc1ccc(C(=O)NCCc2ccccc2Cl)cc1")
"MET"
>>> discrete_label("O=C(NCCc1cccc(F)c1)c1ccc(-c2ccccc2)cn1")
"MET"
>>> discrete_label("N#Cc1ccc(-c2ccc(C(=O)NCCc3ccccc3F)nc2)cc1")
"NOT MET"
>>> discrete_label("Cc1cccc(C(=O)NCCc2ccncc2)n1")
"NOT MET"
>>> discrete_label("O=C(NCCc1ccccc1)c1ccc(-c2ccccc2)cn1")
"MET"
>>> discrete_label("O=C(NCCc1ccncc1)c1csc(-c2ccncc2)n1")
"NOT MET"
>>> discrete_label("N#Cc1cccc(-c2ccc(C(=O)NCCc3ccccc3F)nc2)c1")
"MET"
>>> discrete_label("O=C(NCCc1ccncc1)c1nccc(-c2ccccc2)n1")
"MET"
>>> discrete_label("Cc1ccc(CCNC(=O)c2ccc(-c3ccccc3)cn2)cc1")
"NOT MET"
>>> discrete_label("O=C(NCCc1ccccc1F)c1ccc(-c2ccccc2F)cn1")
"MET"
>>> discrete_label("Cc1nc(C(=O)NCCc2ccccc2Cl)cs1")
"MET"
>>> discrete_label("O=C(NCCc1ccncc1)c1nnc(-c2ccccc2)o1")
"MET"
>>> discrete_label("O=C(NCCc1ccncc1)c1ccc(-c2ccccc2)nc1")
"MET"
>>> discrete_label("Cc1nc(C(=O)NCCc2cccnc2)cs1")
"NOT MET"
>>> discrete_label("O=C(NCCc1ccccc1Cl)c1csc(-c2cccnc2)n1")
"NOT MET"
>>> discrete_label("O=C(NCCc1ccccc1F)c1ccc(-c2cccc(O)c2)cn1")
"NOT MET"
>>> discrete_label("O=C(NCCc1ccccc1Cl)c1ccc(-c2ccccc2)cc1")
"MET"
>>> discrete_label("N#Cc1ccccc1-c1ccc(C(=O)NCCc2ccccc2F)nc1")
"MET"
>>> discrete_label("O=C(NCCc1ccncc1)c1coc(-c2ccccc2)n1")
"NOT MET"
>>> discrete_label("O=C(NCCc1ccccc1F)c1ccc(-c2ccsc2)cn1")
"MET"
>>> discrete_label("O=C(NCCc1ccccc1F)c1ccc(-c2ccncc2)cn1")
"MET"
